- test_summary: chemical genetic growth profiling, strain panel (AID 1159580);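 further: tested at 20 µM; growth read once vehicle control cultures reached saturation at 30 °C; lower values mean less growth of the strain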
- assay_setup: S. cerevisiae deletion strains, growth OD, locus YEL037C, strain rad23
Among all 5,500 compounds or so, about 2,000 (36%) were called active. Inconclusive results (about 18%) are left out. No stated cut-off is given here; in the data, active means normalized growth mostly below about 0.91 (no sharp cut-off); inconclusive means no clear call, values can overlap the other calls; inactive means mostly above about 0.92. The list shows a part of the results.
Classes used: t (active), f (inactive)

>>> cat("COc1ccc(-c2c(O)c3c(OC)c4c(cc3oc2=O)OC(C)(C)C=C4)cc1")
"f"
>>> cat("O=C(/C=C/c1ccccc1)c1ccc(O)cc1O")
"t"
>>> cat("CNC(C)(C)Cc1ccccc1")
"f"
>>> cat("CC(=O)OCC1=C(C(=O)O)N2C(=O)[C@@H](NC(=O)CSc3ccncc3)[C@H]2SC1")
"f"
>>> cat("COc1cc([C@@H]2c3cc4c(cc3[C@H](O)[C@H]3COC(=O)[C@H]23)OCO4)cc(OC)c1OC")
"f"
>>> cat("O=C1C=C(O)c2ccccc2C1=O")
"f"
>>> cat("COc1cc(OC)c2c(OC)c(-c3ccc4c(c3)OCO4)c(=O)oc2c1")
"f"
>>> cat("NNCc1ccccc1")
"f"
>>> cat("CCCCCC/C=C\\CCCCCCCc1cccc(O)c1C(=O)O")
"f"
>>> cat("CCCCCCCCCCCCCCCC(=O)OC[C@H](NC(=O)C(Cl)Cl)[C@H](O)c1ccc([N+](=O)[O-])cc1")
"f"
>>> cat("O=C(O)[C@H]1/C(=C/CO)O[C@@H]2CC(=O)N21")
"f"
>>> cat("CC(=O)Nc1c(I)cc(I)c(C(=O)O)c1I")
"f"
>>> cat("O=C(N[C@@H](CO)[C@H](O)c1ccc([N+](=O)[O-])cc1)C(Cl)Cl")
"f"
>>> cat("O=C1c2ccccc2C(=O)c2ccccc21")
"f"
>>> cat("CC(NC(C)(C)C)C(=O)c1cccc(Cl)c1 (configuration not stated)")
"f"
>>> cat("CN1CCN(C2=Nc3cc(Cl)ccc3Nc3ccccc32)CC1")
"f"
>>> cat("O=C1C=CC(=O)c2c(O)cccc21")
"f"
